# procedure-details: Inhibition of hydrogen potassium ATPase in pig stomach mucosal membrane assessed as reduction in liberated inorganic phosphate level after 15 mins by colorimetric method
# Type: cell membranes, Sus scrofa
Lab note - cut at 5 µM for IC50: true (1) if strictly below, false (0) if not.

Worked set:
molecule	assigned-class
Brc1ccc(C2CC(c3ccco3)=Nc3ccccc3S2)cc1 (stereo not drawn)	true (1)
Clc1ccc(C2CC(c3ccco3)=Nc3ccccc3S2)cc1 (stereo not drawn)	false (0)
COc1ccc(C2CC(c3ccco3)=Nc3ccccc3S2)cc1 (stereo not drawn)	true (1)
COc1cc(C2CC(c3ccco3)=Nc3ccccc3S2)ccc1O (stereo not drawn)	true (1)
O=[N+]([O-])c1ccc(C2CC(c3ccco3)=Nc3ccccc3S2)cc1 (stereo not drawn)	true (1)

With those in mind, consider the next molecule.
Challenge: IC50 under 5 µM? Item: c1ccc(C2CC(c3ccco3)=Nc3ccccc3S2)cc1 (stereo not drawn)
Response given: false (0)
